Origin of values: ChEMBL document CHEMBL1145002

experimental_target: Nitric oxide synthase 1 (Rattus norvegicus)
experiment_notes: Evaluation as substrate of Neuronal nitric oxide synthase by hemoglobin assay using NOHA as control
measured_parameter: NO formation

[Q] Fill in the blank: the reported NO formation of C#CCC/N=C(/N)NO is ____.
[A] 37%

[Q] Which NO formation is reported for this compound? CC1CC1CN=C(N)N (stereo unspecified)
[A] < 0.5%

[Q] Record request: NO formation value, item N=C(N)NCCC[C@H](N)C(=O)O
[A] 72%

[Q] Endpoint output: NO formation of N/C(=N/CC1CC1)NO . Value?
[A] < 0.5%

[Q] So what does the record say about NO formation for CCCCN=C(N)N ?
[A] < 0.5%

[Q] Sample CCCCN(C)C(=N)NO — what was its NO formation?
[A] < 0.5%

[Q] I would be grateful if you could share the reported NO formation for N/C(=N\O)N1CCOCC1 .
[A] < 0.5%

[Q] # input compound: CC(C)NC(=N)NO ; wanted: its NO formation
[A] 70%

[Q] Entry under review: N/C(=N\O)N1CCCC1 . Reported NO formation?
[A] < 0.5%

[Q] // NO formation lookup, key: CCCCN/C(N)=N/O
[A] 64%

[Q] Name the reported NO formation value associated with the compound CCCC/N=C(/N)NOCc1ccccc1
[A] < 0.5%

[Q] // query NO formation value for entry N=C(N)NCC1CC1
[A] < 0.5%

[Q] What measured NO formation goes with C/C=C/CN=C(N)N ?
[A] < 0.5%

[Q] What does the data say about its NO formation? Entry: C/C=C/C/N=C(/N)NO
[A] 5%

[Q] Which measured NO formation value corresponds to CCCC/N=C(/N)NOC ?
[A] < 0.5%

[Q] Could you tell me which NO formation is on file for N/C(=N/C1CC1)NO ?
[A] 70%

* * *

experimental_target: Nitric oxide synthase 3 (Homo sapiens)
experiment_notes: Evaluation as substrate of endothelial nitric oxide synthase by hemoglobin assay using NOHA as control
Provide the reported NO formation of each item.

[Q] State the recorded NO formation for this entry: CCCCN(C)C(=N)NO
[A] < 0.5%

[Q] For the compound N/C(=N\O)N1CCCC1 , what NO formation is on record?
[A] < 0.5%

[Q] Please give the measured NO formation for this compound: CCCCN=C(N)N
[A] < 0.5%

[Q] Record request: NO formation value, item N=C(N)NCCC[C@H](N)C(=O)O
[A] 38%

[Q] Return reported NO formation; argument: N/C(=N/CC1CC1)NO
[A] < 0.5%

[Q] So what's the measured NO formation for this one? N=C(N)NCC1CC1
[A] < 0.5%

[Q] Sample N/C(=N\O)N1CCOCC1 — what was its NO formation?
[A] < 0.5%

[Q] I would be grateful if you could share the reported NO formation for CC(C)NC(=N)NO .
[A] 38%
